Test system: HOP-92 NSCLC
TEST_NAME: NCI-60 one-dose screen, 48 h (100 = growth as untreated, 0 = no growth, -100 = all killed)
STUDY_CONDITIONS: 10 µM unless noted
About 83,000 compounds went through this panel and 20% of them were active in at least one assay; those are over-represented in the sample as a whole.
TRUE means recorded growth is 50% or above; FALSE means it is below 50%.

MOLECULE | CLASS
COc1ccc(-c2ccc(-c3ccc(C(=N)N)cn3)s2)cc1OC | TRUE
CC12CCC3C4(C)COC(c5ccccc5Cl)OC4CCC3(C)C1CC(C1=CCOC1=O)O2 (stereo unspecified) | TRUE
COC(OC)c1ccccc1 | TRUE

Now, please, on to the next molecule.
Please indicate if the recorded growth for CCC(=O)OC1=CN2C(=NC(c3ccc(N)cc3)=CC2c2cc(OC)c(OC)c(OC)c2)S1 (stereo unspecified) meets or exceeds 50%. FALSE

====

Tested on: NCI-H226 lung
TEST_NAME: NCI-60 one-dose screen, 48 h (100 = growth as untreated, 0 = no growth, -100 = all killed)
STUDY_CONDITIONS: 10 µM unless noted
The panel holds about 83,000 compounds, 20% with a hit somewhere; the sample as a whole holds those more often. Active and inactive are the calls of the source. How the source made its calls: active means growth percent below 10; inactive means the rest.
MEASURE_NAME: growth

Check out these entries, answers already filled in.
COMPOUND | REPORTED_MEASUREMENT
C=C1CC2(OC1=O)C(=O)N(CCCN1C(=O)C3(CC(=C)C(=O)O3)c3ccccc31)c1ccccc12 (stereo not given) | 78.7% (inactive)
COc1ccc(S(=O)(=O)NCCCNc2nccc(-n3ccc4cccnc43)n2)cc1 | 89.9% (inactive)
COc1ccc2c(c1)[nH]c(=O)c1c3cccc(F)c3cn21 | 45.3% (inactive)
CCCOC(=O)n1cccc1 | 104% (inactive)
CC(=O)Nc1scc[n+]1Cc1ccccc1 | 106% (inactive)
c1ccc(-c2cn(-c3ccccc3)c(-c3ccccc3)n2)cc1 | 93.4% (inactive)
O=C(CSc1nc2ccccc2[nH]1)c1ccc(N2CCOCC2)cc1 | 97.6% (inactive)
O=C(Nc1cccc(-n2cc(-c3ccncc3)c(-c3ccc(Cl)c(O)c3)n2)c1)Nc1cc(C(F)(F)F)cc(C(F)(F)F)c1 | 1.17% (active)

Can you share its growth? I mean this compound: O=S(=O)(CC(O)(c1ccccc1)c1ccccc1)CC(O)(c1ccccc1)c1ccccc1 84.1% (inactive)

Can you share its growth? I mean this compound: Cc1ccc(C(=O)C2=Cc3cc4ccccc4n3Cc3cnnn32)cc1 98.1% (inactive)

====

Tested on: K-562 leukemia
TEST_NAME: NCI-60 one-dose screen, 48 h (100 = growth as untreated, 0 = no growth, -100 = all killed)
STUDY_CONDITIONS: 10 µM unless noted
Compounds without any hit were thinned out: in the full panel of roughly 83,000, 20% have a hit.
MEASURE_NAME: growth (%)
Unit % implied. Number only.

COMPOUND | MEASURE_NAME | REPORTED_MEASUREMENT
O=c1[nH]c(NCc2ccccc2)nc2nc(Nc3ccc(NC(=S)Nc4ccccc4)cc3)nc(-c3ccc(O)cc3O)c12 | growth | 63.3
CCC1=CCC[C@@]2(C)CCC[C@@]3(C)CCCC(C)(C)[C@]1([O-])[O+]32 | growth | 101
O=C1Nc2ccc(Cl)cc2C12Nc1cc(Cl)ccc1S2 (stereo not given) | growth | 39.2

Can you share its growth? I mean this compound: CN(CCCCN(C[C@H]1Cc2ncccc2CN1)[C@H]1CCCc2cccnc21)C1CCC(F)(F)CC1 72.3

Can you share its growth? I mean this compound: COc1cc(-c2nn(-c3cccc(NC(=O)Nc4ccc(Cl)c(C(F)(F)F)c4)c3)cc2-c2ccncc2)ccc1Cl 3.8
